biological target: human FXR (Homo sapiens, UniProt Q96RI1); construct: expressed in transfected cells; host or cells: HepG2; assay: FXR responsive luciferase reporter gene assay (FXRE-luc + human FXR expression construct) in HepG2 cells; assay type: cell-based; conditions: HepG2, 24 h
Sequence (Q96RI1 whole entry): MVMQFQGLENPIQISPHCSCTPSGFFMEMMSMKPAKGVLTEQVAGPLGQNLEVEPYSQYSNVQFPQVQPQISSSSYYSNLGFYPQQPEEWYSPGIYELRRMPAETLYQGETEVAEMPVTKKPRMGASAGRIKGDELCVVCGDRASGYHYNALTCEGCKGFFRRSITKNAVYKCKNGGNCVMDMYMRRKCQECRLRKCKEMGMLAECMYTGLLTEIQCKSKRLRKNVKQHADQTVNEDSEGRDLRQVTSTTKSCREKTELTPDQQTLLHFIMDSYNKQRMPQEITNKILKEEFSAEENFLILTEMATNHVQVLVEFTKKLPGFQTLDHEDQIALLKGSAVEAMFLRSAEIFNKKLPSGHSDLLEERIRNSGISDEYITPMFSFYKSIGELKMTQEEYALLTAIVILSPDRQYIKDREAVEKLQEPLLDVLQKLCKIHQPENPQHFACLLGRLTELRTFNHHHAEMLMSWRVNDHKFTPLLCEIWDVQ
List of Emax at 10 µM values.
Hi! Could you send only the number? It should be in %, unit omitted.

Solved entries (count: 3):
>>> print(df.to_string())
                                   compound                       experimental_system  measurement_name  observed_value
0  C[C@@H](Oc1ccc(Oc2ccc3c(C(F)(F)F)cccc3n2)cc1)C(=O)O  human FXR (Homo sapiens, UniProt Q96RI1)     Emax at 10 µM               1
1  C[C@@H](Oc1ccc(Oc2ccc3c(Cl)cccc3n2)cc1)C(=O)O  human FXR (Homo sapiens, UniProt Q96RI1)     Emax at 10 µM              77
2  COc1ccc2ncc(Oc3ccc(O[C@H](C)C(=O)O)cc3)nc2c1  human FXR (Homo sapiens, UniProt Q96RI1)     Emax at 10 µM              -2

Enquiry: API: value(readout=Emax at 10 µM, system=human FXR (Homo sapiens, UniProt Q96RI1)) for record `C[C@@H](Oc1ccc(Oc2ccc3c(Cl)cc(Cl)cc3n2)cc1)C(=O)O`
Return: 14

Enquiry: Under human FXR (Homo sapiens, UniProt Q96RI1): Emax at 10 µM value of `CCOC(=O)[C@@H](C)Oc1ccc(Oc2ccc3c(Cl)cccc3n2)cc1` ?
Return: 25

Enquiry: Form field - read-out: Emax at 10 µM; system: human FXR (Homo sapiens, UniProt Q96RI1); submitted item: `Cc1cc(C)c2ccc(Oc3ccc(O[C@H](C)C(=O)O)cc3)nc2c1`
Return: 7

Enquiry: Quick check: Emax at 10 µM on human FXR (Homo sapiens, UniProt Q96RI1), item `C[C@@H](Oc1ccc(Oc2ccc3cc(Cl)ccc3n2)cc1)C(=O)O` ?
Return: 19

Enquiry: What Emax at 10 µM appears in the records for this compound with human FXR (Homo sapiens, UniProt Q96RI1)? `C[C@@H](Oc1ccc(Oc2cnc3cc(Cl)ccc3n2)cc1)C(=O)O`
Return: 1

Enquiry: Request body: readout Emax at 10 µM, system human FXR (Homo sapiens, UniProt Q96RI1), query `C[C@@H](Oc1ccc(Oc2cnc3ccccc3n2)cc1)C(=O)O` . Return the value.
Return: 7

Enquiry: For the record CCOC(=O)C(C)Oc1ccc(NCc2ccc3c(Cl)cccc3n2)cc1 (centres unmarked) , what value of Emax at 10 µM is listed for human FXR (Homo sapiens, UniProt Q96RI1)?
Return: -1

Enquiry: Param readout = Emax at 10 µM; param system = human FXR (Homo sapiens, UniProt Q96RI1); param query = `C[C@@H](Oc1ccc(Oc2ccc3ccc([N+](=O)[O-])cc3n2)cc1)C(=O)O` ; response: value
Return: 0

Enquiry: Entry CC(Oc1ccc(Nc2cnc3ccc(Cl)cc3n2)cc1)C(=O)O (centres unmarked) , system human FXR (Homo sapiens, UniProt Q96RI1): what Emax at 10 µM was measured?
Return: -1

Enquiry: So what Emax at 10 µM did `C[C@@H](Oc1ccc(Oc2cnc3ccc(Br)cc3n2)cc1)C(=O)O` get with human FXR (Homo sapiens, UniProt Q96RI1)?
Return: -2

Enquiry: # get_value(readout= Emax at 10 µM, system= human FXR (Homo sapiens, UniProt Q96RI1)) for `C[C@@H](Oc1ccc(Oc2ccc3c(Br)cccc3n2)cc1)C(=O)O`
Return: 89

Enquiry: Quick check: Emax at 10 µM on human FXR (Homo sapiens, UniProt Q96RI1), item `C[C@@H](Oc1ccc(Oc2ccc3ccc(Br)cc3n2)cc1)C(=O)O` ?
Return: 4

Enquiry: Return Emax at 10 µM measured with human FXR (Homo sapiens, UniProt Q96RI1) given this compound: CC(Oc1ccc(NCc2ccc3c(Cl)cc(Cl)cc3n2)cc1)C(=O)O (centres unmarked)
Return: -2

Enquiry: Lab note: need Emax at 10 µM with human FXR (Homo sapiens, UniProt Q96RI1) for entry `C[C@@H](Oc1ccc(Oc2cnc3ccc(Cl)cc3n2)cc1)C(=O)O` , please look it up.
Return: -3

The measured values listed here are drawn from patent EP4583874B1.
